Assay: physchem
Details: 23 °C, water, thermodynamic from solid
Assay Readout: solubility at 12 h

The compound identified as CC(C)(C)c1cc(C(=O)OC2O[C@H](CO)[C@@H](O)[C@H](O)[C@H]2O)cc(C(C)(C)C)c1O (stereo partly shown) registered its solubility at 12 h at 1200 µg/mL
